# pIC50 values compiled below
molecular target: Human ATX protein (Homo sapiens)
pIC50: −log10 of the molar value.
property_measured: pIC50

[[record]]
molecule = "C[C@H]1CC[C@@H](Oc2ccc3cc(CN4C5CCC4CC(C(=O)O)C5)ccc3c2C#N)CC1 (stereo partly shown) [Example 188]"
target = "Human ATX protein (Homo sapiens)"
property_measured = "pIC50"
reading = "≥ 6.30"

[[record]]
molecule = "CC[C@H]1CC[C@@H](Oc2ccc3cc(C(C)N4C5CCC4CC(C(=O)O)C5)ccc3c2C(F)(F)F)CC1 (relative stereo) [Example 176]"
target = "Human ATX protein (Homo sapiens)"
property_measured = "pIC50"
reading = "≥ 7.00"

[[record]]
molecule = "NC1CC2CC(C(=O)O)CC(C1)N2Cc1ccc2c(C(F)(F)F)c(O[C@H]3CC[C@@H](C(F)(F)F)CC3)ccc2c1 (stereo partly shown) [Example 284]"
target = "Human ATX protein (Homo sapiens)"
property_measured = "pIC50"
reading = "≥ 6.60"

[[record]]
molecule = "CC(C)(C)[C@H]1CC[C@H](Nc2ncc3cc(C(=O)N4C5CCCC4CC(C(=O)O)C5)ccc3n2)CC1 (stereo partly shown) [Example 191]"
target = "Human ATX protein (Homo sapiens)"
property_measured = "pIC50"
reading = "≥ 7.00"

[[record]]
molecule = "CC[C@H]1CC[C@@H](Oc2ccc3cc(C(C)N4C5CCCC4CC(C(=O)O)C5)ccc3c2C#N)CC1 (stereo partly shown) [Example 213]"
target = "Human ATX protein (Homo sapiens)"
property_measured = "pIC50"
reading = "≥ 7.00"

[[record]]
molecule = "CC[C@H]1CC[C@@H](Oc2ccc3cc([C@H](C)N4C5CCC4CC(C(=O)O)C5)ccc3c2C(F)(F)F)CC1 (single isomer, unassigned) [Example 290]"
target = "Human ATX protein (Homo sapiens)"
property_measured = "pIC50"
reading = "≥ 7.00"

[[record]]
molecule = "O=C(O)C1CC2CCCC(C1)N2Cc1ccc2c(Cl)c(O[C@H]3CC[C@@H](C(F)(F)F)CC3)ccc2c1 (stereo partly shown) [Example 111]"
target = "Human ATX protein (Homo sapiens)"
property_measured = "pIC50"
reading = "≥ 6.60"

[[record]]
molecule = "CC[C@H]1CC[C@@H](Oc2ccc3cc(C(=O)N4C5CCCC4CC(C(=O)O)C5)ccc3c2C#N)CC1 (stereo partly shown) [Example 221]"
target = "Human ATX protein (Homo sapiens)"
property_measured = "pIC50"
reading = "≥ 7.00"

[[record]]
molecule = "CC(c1ccc2c(C#N)c(O[C@H]3CC[C@@H](C)CC3)ccc2c1)N1C2CCCC1CC(C(=O)O)C2 (stereo partly shown) [Example 225]"
target = "Human ATX protein (Homo sapiens)"
property_measured = "pIC50"
reading = "≥ 7.00"

[[record]]
molecule = "CC(c1ccc2c(C(F)(F)F)c(O[C@H]3CC[C@@H](C(F)(F)F)CC3)ccc2c1)N1C2CCC1CC(C(=O)O)C2 (single isomer, unassigned; enantiomer 1) [Example 173]"
target = "Human ATX protein (Homo sapiens)"
property_measured = "pIC50"
reading = "≥ 7.00"

[[record]]
molecule = "CCC(c1ccc2c(C(F)(F)F)c(O[C@H]3CC[C@@H](C(F)(F)F)CC3)ccc2c1)N1C2CCCC1CC(C(=O)O)C2 (relative stereo) [Example 177]"
target = "Human ATX protein (Homo sapiens)"
property_measured = "pIC50"
reading = "≥ 7.00"

[[record]]
molecule = "CC(C)(C)[C@H]1CC[C@H](Nc2ncc3cc(C(=O)N4C5CCC4CC(C(=O)O)C5)ccc3n2)CC1 (stereo partly shown) [Example 262]"
target = "Human ATX protein (Homo sapiens)"
property_measured = "pIC50"
reading = "≥ 7.00"

[[record]]
molecule = "N#Cc1c(O[C@H]2CC[C@@H](C(F)(F)F)CC2)ccc2cc(CN3C4CCCC3CC(C(=O)O)C4)ccc12 (stereo partly shown) [Example 229]"
target = "Human ATX protein (Homo sapiens)"
property_measured = "pIC50"
reading = "≥ 7.00"


Data origin, for the record: patent US9944666B2
